- Test system: peptide-pulsed HHD-transfected RMAS cells
- Format: in vivo, HHD mice
- condition details: without helper peptide; 100 μg peptide s.c. in IFA

sequence string | Responder/tested mice
LLDTGADDTV [L10V] | 1/6
AFHHVAREL [A9L, HIV 1 NEF (188-196) CD8 epitopic peptide] | 0/6
RLRDLLLIV [R9V, HIV 1 ENV gp41 (260-268) CD8 epitopic peptide] | 1/6
ILKEPVHGV [I9V] | 4/6
LLWKGEGAV [L9V, HIV 1 POL (956-964) CD8 epitopic peptide] | 3/6
EMMTACQGV [E9V] | 0/6
KLTPLCVSL [K9L, HIV 1 ENV gp120 (120-128) CD8 epitopic peptide] | 3/6
ALVEICTEM [A9M, HIV 1 POL (188-196) CD8 epitopic peptide] | 3/6
PLTFGWCFKL [P10L, HIV 1 NEF (134-143) CD8 epitopic peptide] | 0/6
TLNAWVKVV [T9V] | 2/6
VLDVGDAYFSV [V11V] | 3/6
VIYQYMDDL [V9L, HIV 1 POL (334-342) CD8 epitopic peptide] | 1/6
PLVKLWYQL [P9L, HIV 1 POL (576-584) CD8 epitopic peptide] | 0/6

###

- Test system: peptide-pulsed HHD-transfected RMAS cells
- Type: in vivo, HHD mice
- condition details: by number of responder mice and strength of responses; peptide in IFA

sequence string | test system | classification as immunogen
VIYQYMDDL [V9L, HIV 1 POL (334-342) CD8 epitopic peptide] | peptide-pulsed HHD-transfected RMAS cells | intermediate
TLNAWVKVV [T9V] | peptide-pulsed HHD-transfected RMAS cells | intermediate
PLVKLWYQL [P9L, HIV 1 POL (576-584) CD8 epitopic peptide] | peptide-pulsed HHD-transfected RMAS cells | inefficient
LLWKGEGAV [L9V, HIV 1 POL (956-964) CD8 epitopic peptide] | peptide-pulsed HHD-transfected RMAS cells | intermediate
LLDTGADDTV [L10V] | peptide-pulsed HHD-transfected RMAS cells | intermediate
ALVEICTEM [A9M, HIV 1 POL (188-196) CD8 epitopic peptide] | peptide-pulsed HHD-transfected RMAS cells | intermediate
VLDVGDAYFSV [V11V] | peptide-pulsed HHD-transfected RMAS cells | intermediate
AFHHVAREL [A9L, HIV 1 NEF (188-196) CD8 epitopic peptide] | peptide-pulsed HHD-transfected RMAS cells | inefficient
EMMTACQGV [E9V] | peptide-pulsed HHD-transfected RMAS cells | inefficient
RLRDLLLIV [R9V, HIV 1 ENV gp41 (260-268) CD8 epitopic peptide] | peptide-pulsed HHD-transfected RMAS cells | intermediate
KLTPLCVSL [K9L, HIV 1 ENV gp120 (120-128) CD8 epitopic peptide] | peptide-pulsed HHD-transfected RMAS cells | intermediate
PLTFGWCFKL [P10L, HIV 1 NEF (134-143) CD8 epitopic peptide] | peptide-pulsed HHD-transfected RMAS cells | inefficient

###

# RA (relative affinity) per entry
- test system: HLA-A2.1 molecules (Homo sapiens, UniProt P04439, D140Y/D185E/D98H/E176V/E277Q/G131W/G231S/I119V/I121R/I166T/I218V/L300P/L318F/N151K/N90K/P208A/P217A/Q86G/Q94H/R138H/R169H/T345S)
- Construct: Using TAP-deficient, HLA-A2.1^+ T2 cells, we evaluated these parameters in an immunofluorescence assay; endogenous in cells; host or cells: T2 cells (TAP-deficient, HLA-A2.1+)
- Format: binding

sequence string | RA (relative affinity)
RLRDLLLIV [R9V, HIV 1 ENV gp41 (260-268) CD8 epitopic peptide] | >100/ND
VLYRYGSFSV [gp100.476, gp100 476-485 human melanoma epitopic peptide] | 10
MLLAVLYCL [Tyrosinase.1, Tyrosinase 1-9 epitopic peptide] | >60
LLDGTATLRL [gp100.457] | 1.65
ILTVILGVL [Melan-A/MART-1.32, Melan-A/MART-1 32-40 epitopic peptide] | 21.1
YMDGTMSQV [Tyrosinase.368-D] | 2.27
VLPDVFIRC [NA17-A.nt38, NA17-A nt38-64 epitopic peptide] | 1.52
RMPEAAPPV [p53.65, p53 65-73 epitopic peptide] | 0.91
YMNGTMSOV [Tyrosinase.368-N] | 2.2
